Data origin: paper PMC2254190

Target: SH3.1 domain of Nck (NMR work, in preparation) (UniProt P16333 2-61)
Assay: not stated; affinity told in the discussion without method
pKd: −log10 of the molar value.
value.kind: pKd

[
  {
    "binder": "CD3ε polypeptide (NMR work, in preparation) (domain or fragment, The construct is not described (unpublished NMR work, 'in preparation'). The whole cytoplasmic tail, by UniProt topology, is used because it holds the PPS with its upstream and downstream charged …) KNRKAKAKPVTRGAGAGGRQRGQNKERPPPVPNPDYEPIRKGQRDLYSGLNQRRI",
    "value.kind": "pKd",
    "value.observed": "~7.00"
  }
]
